B1: OR4K15 (parent)
chain: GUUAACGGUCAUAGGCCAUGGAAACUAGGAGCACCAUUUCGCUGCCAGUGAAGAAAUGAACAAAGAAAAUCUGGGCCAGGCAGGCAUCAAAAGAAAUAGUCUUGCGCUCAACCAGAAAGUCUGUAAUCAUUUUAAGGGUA

Variants of: B1
Experiment: self-cleavage, relative activity (ratio to wild type); higher = more cleavage; in vitro, sequencing; the parent is a self-cleaving ribozyme
Here, each record is paired with measured self-cleavage data.
Simply state the number, no unit and no words.

The cases that follow already have their self-cleavage on record.
# MUTANT_DESIGNATION, self-cleavage
measured = [
    ("C10U U132C", 1.26),
    ("A11G A30G", 1.08),
    ("A91U U100C", 2.82),
    ("A60G C107U", 0),
    ("A18U A27G", 1.13),
    ("A125U A126G", 1.04),
]

get_value(item= C16U A68G , readout=self-cleavage) returns 1.42

// self-cleavage lookup, variant = U97A C101U , result: 0.49

Summary for this variant, A56G U97A : self-cleavage is 2.36

The measured self-cleavage associated with U2G A59G reads 0.81

// sample U72A C128U , its self-cleavage was 0.15

Measured self-cleavage, G8A U19A : 1.92

Notebook: A66C A78G , self-cleavage read as 0.32

# self-cleavage (variant: A89C A96G ) is 2.38

The measured self-cleavage associated with U70A A78G reads 0.33

Entry U9G A135U , self-cleavage reported as 0.85

The recorded self-cleavage for entry A5U A60C equals 1.78

Entry under test: G7A U108C . Its self-cleavage was 0

get_value(item= A5G A94G , readout=self-cleavage) returns 1

Measured self-cleavage, A52G U122C : 1.45

A114U U124G has a reported self-cleavage of 0.06

Short answer for A30U A116G : self-cleavage was 1.27

For reference, reported self-cleavage for A64U A86G stands at 1.85

Entry A56C U133A ; self-cleavage = 1.4

Short answer for A23G A67G : self-cleavage was 1.11

Origin of values: the RNAGym collection of RNA variant scans (doi:10.7554/elife.90254)
